- ASSAY_PROTOCOL: Dynamic vapor sorption - stability of solid form
- Format: physicochemical
- CONDITION_DETAILS: 25°C, humidity cycles 0-95% RH
READOUT_KIND: Stability of solid form (in DVS)

CN(C)C(=O)c1cc2cnc(Nc3ccc(N4CCNCC4)cn3)nc2n1C1CCCC1 [Form 6]: stable
CN(C)C(=O)c1cc2cnc(Nc3ccc(N4CCNCC4)cn3)nc2n1C1CCCC1 [Form 7]: stable
CN(C)C(=O)c1cc2cnc(Nc3ccc(N4CCNCC4)cn3)nc2n1C1CCCC1 [Form 1]: stable

###

- ASSAY_PROTOCOL: Solubility in aqueous solvents
- Type: physicochemical
- CONDITION_DETAILS: 20 mM sodium acetate buffer, 37 °C, pH 4.5, aqueous buffer, thermodynamic from solid, 20mM NaAc pH4.5, 15 min
READOUT_KIND: solubility at 15 min (mg/mL)
Please reply with the bare figure in mg/mL and do not write the unit itself.

Recall and state the measured solubility at 15 min for CN(C)C(=O)c1cc2cnc(Nc3ccc(N4CCNCC4)cn3)nc2n1C1CCCC1 [Form 1] . 14.2
